Listed molecules paired with reported IC50
# protocol summary: Inhibition of IL-5 in mouse Y16 cells assessed as reduction in cell proliferation after 48 hrs by WST-1 assay

• O=C1/C(=C/c2ccc(O)cc2)Cc2cccc(OCC3CCCCC3)c21 = > 30 µM
• COc1ccc(CC2Cc3cccc(OCC4CCCCC4)c3C2=O)cc1 (stereo unspecified) = > 30 µM
• COc1ccc(/C=C2\Cc3cccc(O)c3C2=O)cc1 = > 30 µM

Fill in: IC50 of O=C1c2c(cccc2OCC2CCCCC2)CC1Cc1ccc(Cl)cc1 (stereo unspecified) is ___
20.5 µM

Try this molecule too: O=C1c2c(cccc2OCCc2ccccc2)CC1Cc1ccc(O)cc1 (stereo unspecified)
26 µM

And for `O=C1/C(=C/c2ccc(O)cc2)Cc2cccc(O)c21` ?
> 30 µM

* * *

The entries below come with measured pIC50 values attached.
# protocol summary: Inhibition of IL-5 in mouse Y16 cells assessed as reduction in cell proliferation after 48 hrs by WST-1 assay
pIC50: −log10 of the molar value.

Example entries begin here.
* O=C1c2c(cccc2OCCc2ccccc2)CC1Cc1ccccc1O (stereo not drawn) | < 4.52
* COc1ccc(/C=C2\Cc3cccc(OCC4CCCCC4)c3C2=O)cc1 | < 4.52
* COCOc1ccc(/C=C2\Cc3cccc(OCC4CCCCC4)c3C2=O)cc1 | < 4.52

Given the molecule `O=C1/C(=C/c2ccccc2)Cc2cccc(O)c21` , what is its reported pIC50?
< 4.52

Can you check `COc1ccc(COc2cccc3c2C(=O)/C(=C/c2ccc(Cl)cc2)C3)cc1` next?
< 4.52

// repeat for `COc1ccc(COc2cccc3c2C(=O)/C(=C/c2ccc(C)cc2)C3)cc1` and report
< 4.52

One more molecule: `COc1ccc(COc2cccc3c2C(=O)/C(=C/c2ccccc2)C3)cc1`
< 4.52

Thanks! And O=C1c2c(cccc2OCC2CCCCC2)CC1Cc1ccccc1O (stereo not drawn) ?
< 4.52

Note, next up: O=C1c2c(O)cccc2CC1Cc1ccc(O)cc1 (stereo not drawn)
< 4.52

Similarly, O=C1c2c(cccc2OCC2CCCCC2)CC1Cc1ccc(O)cc1 (stereo not drawn) ?
5.40

Another: `COc1ccc(COc2cccc3c2C(=O)/C(=C/c2ccc(O)cc2)C3)cc1`
< 4.52

// query: `COc1ccc(/C=C2\Cc3cccc(OCc4ccc(OC)cc4)c3C2=O)cc1`
< 4.52

What do you have for `O=C1/C(=C/c2ccc(O)cc2)Cc2cccc(OCc3ccc([N+](=O)[O-])cc3)c21` ?
< 4.52
